Experiment: chemical genetic growth profiling, strain panel (AID 1159580);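 also: tested at 20 µM; growth read once vehicle control cultures reached saturation at 30 °C; 1 = growth at the plate median or of vehicle wells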
Settings: S. cerevisiae deletion strains, growth OD, locus YJL128C, strain PBS2
Out of some 5,500 compounds screened, about 2,000 (36%) were called active. Not shown: some 18% with an inconclusive outcome. Rule as the data show it: active = normalized growth mostly below about 0.91 (no sharp cut-off); inconclusive = no clear call, values can overlap the other calls; inactive = mostly above about 0.92. The list shows a part of the results.
Possible outcomes: 1 (yes) for active, 0 (no) for inactive

>>> print(df.to_string())
                                    molecule  discrete_label
 0  N#CC(C#N)=C/C=C(/Sc1ccc(F)c(Cl)c1)c1ccc(Cl)cc1          0 (no)
 1   CCCc1c(C(=O)Sc2ccccn2)cnn1-c1ccc(Cl)cc1          0 (no)
 2  CCOC(=O)C1=C(N)OC2=C(C(=O)CC(C)(C)C2)C1c1ccc(Cl)cc1Cl (stereo not drawn)          0 (no)
 3  O=C(Nc1ccc(C(F)(F)F)cc1)N1CCN(c2ccnc3cc(Cl)ccc23)CC1          0 (no)
 4  CCCc1c(C(=O)NNc2cccc(Cl)c2)cnn1-c1ccccc1          0 (no)
 5  Fc1cccc(F)c1NC(=S)Nc1cc(C(F)(F)F)cc(C(F)(F)F)c1          0 (no)
 6         N#CCC(=O)NNC(=S)Nc1ccc(Cl)c(Cl)c1          0 (no)
 7  CCOC(=O)/C(=N/Nc1c(Cl)cccc1Cl)c1csc(N)n1          0 (no)
 8        FC(F)(F)c1cccc(NNC(=S)Nc2ccccc2)c1          0 (no)
 9  O=C(c1ccccc1)c1cc(Cl)ccc1NC(=S)Nc1ccc(F)cc1          0 (no)
10  Fc1cccc(Cl)c1CSc1nncn1-c1ccc(OCc2ccccc2)cc1          0 (no)
11  COC(=O)C1=C(C)NC(C)=C(C(=O)OC)C1c1ccc(Cl)cc1Cl          0 (no)
12         FC(F)(F)c1cccc(NC(=S)Nc2ccccc2)c1          0 (no)
13  O=[N+]([O-])c1ccccc1CS(=O)(=O)c1nc2ccccc2s1          0 (no)
14       C/C(=C\c1ccc2c(c1)OCO2)[N+](=O)[O-]         1 (yes)
15   Cn1c(CSCCOc2ccccc2)nnc1SCc1ccc(Cl)cc1Cl          0 (no)
16  Cc1c2c(=O)[nH]ncc2c(-c2ccccc2)n1-c1ccc([N+](=O)[O-])cc1          0 (no)
17  O=C1CSC(c2cccnc2)N1c1ccc(Cl)cc1Cl (stereo not drawn)          0 (no)
18  CCCc1c(C(=O)NC2Cc3ccccc3C2)cnn1-c1ccccc1          0 (no)
19  O=[N+]([O-])c1cc(Br)cnc1Sc1nnc(SCC2CC2)s1          0 (no)
20  Cc1c(C)c(C)c(CSC(N)=Nc2ccc(F)cc2)c(C)c1C          0 (no)
21  Cc1nn(Cc2ccc(C(=O)Sc3ccc(C(F)(F)F)cn3)o2)c(C)c1Br          0 (no)
22              O=[N+]([O-])/C=C/c1ccc(F)cc1         1 (yes)

====

Assay: chemical genetic growth profiling, strain panel (AID 1159580);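 also: tested at 20 µM; growth read once vehicle control cultures reached saturation at 30 °C; 1 = growth at the plate median or of vehicle wells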
Details: S. cerevisiae deletion strains, growth OD, locus YDR069C, strain doa4, stronger effect = lower value
Among all 5,500 compounds or so, about 2,000 (36%) were called active. About 18% were inconclusive and are not listed. Some of the results follow.

compound	normalized growth
CC(=O)NCCCS(=O)(=O)O	1.01
Nc1ccc(C(=O)NCC(=O)O)cc1	1
CC(C)=CCC/C(C)=C/CC/C(C)=C/CC/C(C)=C/CC/C(C)=C/CC/C(C)=C/CC/C(C)=C/CC/C(C)=C/CC/C(C)=C/CO	1.01
CC(=O)NCCCCCC(=O)O	0.993
CN/C(=C\[N+](=O)[O-])NCCSCc1ccc(CN(C)C)o1	0.97
COc1c2c(cc3c1OCO3)CCN(C)C2	1.02
CC(=O)O[C@H]1C[C@@H](OC(C)=O)C(C)(C)C2C[C@@H](OC(C)=O)[C@@]3(C)C4=CC(=O)O[C@@H](c5ccoc5)[C@]4(C)CCC3[C@]21C (stereo partly specified)	0.983
CCCC(C)C1(CC)C(=O)N=C(S)NC1=O (stereo unspecified)	0.996
CCOP(=S)(OCC)SCn1c(=O)oc2cc(Cl)ccc21	0.956
CN1C(CC(=O)c2ccccc2)CCCC1CC(O)c1ccccc1 (stereo unspecified)	0.999
C=C(CC)C(=O)c1ccc(OCC(=O)O)c(Cl)c1Cl	0.99

====

Assay: chemical genetic growth profiling, strain panel (AID 1159580);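 also: tested at 20 µM; growth read once vehicle control cultures reached saturation at 30 °C; 1 = growth at the plate median or of vehicle wells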
Conditions: S. cerevisiae deletion strains, growth OD, locus YOR184W, strain ser1
Out of some 5,500 compounds screened, about 2,000 (36%) were called active. Roughly 18% stayed inconclusive and do not appear here. Cut-off read from the data, not from the text of the source: active = normalized growth mostly below about 0.91 (no sharp cut-off); inconclusive = no clear call, values can overlap the other calls; inactive = mostly above about 0.92. This is one part of the list.
Outcome codes: YES for active, NO for inactive

molecule	discrete label
CC(C)NCC(O)c1ccc(O)c(O)c1 (stereo unspecified)	NO
COc1ccccc1OCCNCC(O)COc1cccc2[nH]c3ccccc3c12 (stereo unspecified)	NO
N[C@@H](Cc1ccc(O)c(O)c1)C(=O)O	NO
Cc1ccsc1/C=C/C1=NCCCN1C	NO
CCCCC(CC)CN1CN(CC(CC)CCCC)CC(C)(N)C1 (stereo unspecified)	YES
C1CCN2CC3CC(CN4CCCCC34)C2C1 (stereo unspecified)	NO
O[N+]1=CC=CCC1=S.On1ccccc1=S.[Zn]	YES
c1ccc2c3c([nH]c2c1)CNCC3	NO
NCC(O)c1ccc(O)cc1 (stereo unspecified)	NO
CNC[C@@H](O)c1ccc(O)c(O)c1	NO
CO[C@H]1/C=C/O[C@@]2(C)Oc3c(C)c(O)c4c(O)c(c(/C=N/N5CCN(C)CC5)c(O)c4c3C2=O)NC(=O)/C(C)=C\C=C\C(C)[C@H](O)[C@@H](C)[C@@H](O)[C@@H](C)[C@@H](OC(C)=O)[C@@H]1C (stereo partly specified)	NO
NC[C@H](O)c1ccc(O)c(O)c1	NO
C1CCN2C[C@@H]3C[C@H](CN4CCCC[C@@H]34)[C@H]2C1	NO
CCCCC1=NC2(CCCC2)C(=O)N1Cc1ccc(-c2ccccc2-c2nn[nH]n2)cc1	NO
CC(Cc1ccc(O)c(O)c1)C(C)Cc1ccc(O)c(O)c1 (stereo unspecified)	YES
O=C(CCCCCCCCCCCCC1CCCC1)Nc1ccc(S(=O)(=O)c2ccc(NC(=O)CCCCCCCCCCCCC3CCCC3)cc2)cc1	NO

====

Experiment: chemical genetic growth profiling, strain panel (AID 1159580);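 also: tested at 20 µM; growth read once vehicle control cultures reached saturation at 30 °C; 1 = growth at the plate median or of vehicle wells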
Details: S. cerevisiae deletion strains, growth OD, locus YPR119W, strain clb2
In all, about 5,500 compounds went through this assay and about 2,000 (36%) were called active. Another 18% or so got no clear call; they are omitted. No stated cut-off is given here; in the data, active means normalized growth mostly below about 0.91 (no sharp cut-off); inconclusive means no clear call, values can overlap the other calls; inactive means mostly above about 0.92. Some of the results follow.
Outcome codes: active, inactive

molecule	discrete label
CC(C)(C)NC[C@@H](O)COc1nsnc1N1CCOCC1	inactive
NCC(O)c1ccc(O)cc1 (centres undefined)	inactive
COC(C)(C)CCC[C@H](C)C/C=C/C(C)=C/C(=O)OC(C)C	inactive
CC(=O)NCCCCCC(=O)O	inactive
CC(=O)O[C@@H]1CC2C(C)(C)C=CC(=O)[C@]2(C)C2CC[C@@]3(C)[C@H](c4ccoc4)OC(=O)C4OC43[C@@]21C (some centres undefined)	inactive
CC1(C)C(=O)C=CC2(C)C3CCC4(C)C(c5ccoc5)CC5OC54C3C(O)CC12 (centres undefined)	inactive
CN/C(=C\[N+](=O)[O-])NCCSCc1ccc(CN(C)C)o1	inactive
O=[N+]([O-])c1ccc(O)c([N+](=O)[O-])c1	active
CC(=O)Nc1cc([As](=O)(O)O)ccc1O	inactive
CCN(CC)CCOc1ccc2c(c1)C(=O)c1cc(OCCN(CC)CC)ccc1-2	inactive
Cc1ccc2cc3c(ccc4ccccc43)c3c2c1CC3	inactive
CN(C)CCOC(C)(c1ccccc1)c1ccccn1 (centres undefined)	inactive
C1CNCCN1	inactive
O=C(CCCCCCCCCCCCC1CCCC1)Nc1ccc(S(=O)(=O)c2ccc(NC(=O)CCCCCCCCCCCCC3CCCC3)cc2)cc1	inactive
COc1cc2c(c(OC)c1OC)-c1ccc(O)c(=O)cc1[C@@H](NC(C)=O)CC2	inactive
CC(Cc1ccc(O)c(O)c1)C(C)Cc1ccc(O)c(O)c1 (centres undefined)	inactive
NC[C@H](O)c1ccc(O)c(O)c1	inactive
NCCCC[C@H](N[C@@H](CCc1ccccc1)C(=O)O)C(=O)N1CCC[C@H]1C(=O)O	inactive
NCC(CC(=O)O)c1ccc(Cl)s1 (centres undefined)	inactive
CC(=O)Nc1ccc(S(=O)(=O)Nc2ccc([N+](=O)[O-])cc2)cc1	inactive
OC[C@@H]1CCCN2CCCC[C@H]12	inactive
O=C(O[C@@H]1Cc2c(O)cc(O)cc2O[C@@H]1c1cc(O)c(O)c(O)c1-c1c([C@H]2Oc3cc(O)cc(O)c3C[C@H]2O)cc(O)c(O)c1O)c1cc(O)c(O)c(O)c1	inactive
C=C[C@](C)(O)CCC=C(C)C	inactive
CCCCC1(COC(=O)CCC(=O)O)C(=O)N(c2ccccc2)N(c2ccccc2)C1=O	inactive
CC(=O)O[C@H]1C[C@@H](OC(C)=O)C(C)(C)C2C[C@@H](OC(C)=O)[C@@]3(C)C4=CC(=O)O[C@@H](c5ccoc5)[C@]4(C)CCC3[C@]21C (some centres undefined)	inactive
N[C@@H](Cc1ccc(O)c(O)c1)C(=O)O	inactive
O=[N+]([O-])c1cc(O)c(O)c([N+](=O)[O-])c1	inactive
O=C1C=CC2=C3c4cc(O)c(O)cc4CC3(O)COC2=C1O (centres undefined)	inactive
c1ccc2c(c1)cc1ccc3cccc4ccc2c1c34	inactive
CC(C)N(C(=O)SCC(Cl)=C(Cl)Cl)C(C)C	inactive
CC1(C)C(O)CC(O)C2(C)C1CC(O)C1(C)C2CCC2(C)C(c3ccoc3)CC3OC321 (centres undefined)	inactive
CCC[C@H]1CC2=C(C[C@@H](CC)CC3=C1C(=O)OC3=O)C(=O)OC2=O	inactive
CC(=O)OC1CC(OC(C)=O)C2(C)C(CC(OC(C)=O)C3(C)C2CCC2(C)C(c4ccoc4)CC4OC423)C1(C)C (centres undefined)	inactive
CSCCC(NC=O)C(=O)NC(C)C(=O)O (centres undefined)	inactive
CC(C)NCC(O)c1ccc(O)c(O)c1 (centres undefined)	inactive
O[N+]1=CC=CCC1=S.On1ccccc1=S.[Zn]	active
O=[N+]([O-])c1cc([As](=O)(O)O)ccc1O	active
C/C=C/c1ccc2c(c1)OCO2	inactive
CC(=O)O[C@@H]1CC2C(C)(C)C(=O)CC[C@]2(C)C2CC[C@]3(C)C(=CC(=O)O[C@H]3c3ccoc3)[C@@]21C (some centres undefined)	inactive

The origin of these recorded values is PubChem BioAssay AID1159580.
